# Assayed System: 5-hydroxytryptamine receptor 1A (Homo sapiens, UniProt P08908)
# Sequence (P08908 whole entry): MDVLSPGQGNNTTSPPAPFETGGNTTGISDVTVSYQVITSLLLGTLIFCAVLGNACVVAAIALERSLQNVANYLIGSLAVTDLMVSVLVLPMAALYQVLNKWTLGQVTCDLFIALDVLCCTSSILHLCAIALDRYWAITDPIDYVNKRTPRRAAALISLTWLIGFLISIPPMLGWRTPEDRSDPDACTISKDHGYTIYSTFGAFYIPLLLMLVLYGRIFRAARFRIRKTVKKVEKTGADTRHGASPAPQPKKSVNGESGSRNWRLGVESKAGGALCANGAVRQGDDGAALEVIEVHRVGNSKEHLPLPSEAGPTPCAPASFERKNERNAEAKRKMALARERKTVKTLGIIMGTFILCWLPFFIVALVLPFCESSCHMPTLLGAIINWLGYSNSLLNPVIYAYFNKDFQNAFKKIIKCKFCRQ
For each entry below, report its Ki value.

Req: Observed Ki on 5-hydroxytryptamine receptor 1A (Homo sapiens, UniProt P08908) for `C1=Nc2cccc(N3CCN([C@H]4CC[C@H](c5c[nH]c6ncccc65)CC4)CC3)c2C1` , please.
Resp: 7.8 nM

Req: Observed Ki on 5-hydroxytryptamine receptor 1A (Homo sapiens, UniProt P08908) for `Cc1nc2c(N3CCN([C@H]4CC[C@H](c5c[nH]c6ccccc65)CC4)CC3)cccc2[nH]1` , please.
Resp: 3 nM

Req: Observed Ki on 5-hydroxytryptamine receptor 1A (Homo sapiens, UniProt P08908) for `Fc1ccc2[nH]cc([C@H]3CC[C@H](N4CCN(c5cccc6ccccc56)CC4)CC3)c2c1` , please.
Resp: 42.6 nM

Req: Observed Ki on 5-hydroxytryptamine receptor 1A (Homo sapiens, UniProt P08908) for `Cn1cc([C@H]2CC[C@@H](N3CCN(c4cccc5[nH]ccc45)CC3)CC2)c2cc(F)ccc21` , please.
Resp: 124 nM

Req: Observed Ki on 5-hydroxytryptamine receptor 1A (Homo sapiens, UniProt P08908) for `C1=Nc2cccc(N3CCN([C@H]4CC[C@@H](c5c[nH]c6ncccc65)CC4)CC3)c2C1` , please.
Resp: 15.8 nM

Req: Observed Ki on 5-hydroxytryptamine receptor 1A (Homo sapiens, UniProt P08908) for `Fc1ccc2[nH]cc([C@H]3CC[C@H](N4CCN(c5cccc6ncccc56)CC4)CC3)c2c1` , please.
Resp: 8.3 nM

Req: Observed Ki on 5-hydroxytryptamine receptor 1A (Homo sapiens, UniProt P08908) for `Cn1cc([C@H]2CC[C@H](N3CCN(c4cccc5[nH]ccc45)CC3)CC2)c2cc(F)ccc21` , please.
Resp: 90 nM
